- System: MCF7 breast
- experiment: NCI-60 one-dose screen, 48 h
- condition_description: 10 µM unless noted
About 83,000 compounds went through this panel and 20% of them were active in at least one assay; those are over-represented in the sample as a whole. Activity calls are given as the source filed them. Rule for the calls: active = growth percent below 10; inactive = the rest.
Result category, one only: active, inactive

- Cc1cccc(N=C2c3cc([N+](=O)[O-])ccc3-c3c2cc([N+](=O)[O-])cc3[N+](=O)[O-])c1: inactive

Okay, next one:
Call for entry C[CH2][Pb]([CH2]C)([CH2]C)[O]C(=O)COC : active

---

- System: HL-60(TB) leukemia
- experiment: NCI-60 one-dose screen, 48 h (100 = growth as untreated, 0 = no growth, -100 = all killed)
- condition_description: 10 µM unless noted
This is part of a sample that, as a whole, favours compounds with a hit. Of some 83,000 tested, about 20% had one in any assay.
recorded_metric: growth (%)
Answer with a number only, understood to be in %.

Below: 3 compounds and their reported growth.
• CC(C)(C#N)Nc1ccccc1 = 105
• CCN(CC)c1ccc(N=Nc2cc(Cl)ccc2Cl)c(NC(=O)CCC(=O)O)c1 = 119
• O=C(O)c1cccc2c1Cc1cc([N+](=O)[O-])ccc1-2 = 120

Tell me its growth given c1ccc2c(c1)Nc1ccncc1S2 as the entry. 132

Tell me its growth given COC(=O)[C@]12CC[C@@H](C(=O)/C=C/c3cccnc3)[C@@H]1[C@H]1CC[C@@H]3[C@@]4(C)C/C(=C/c5cccnc5)C(=O)C(C)(C)[C@@H]4CC[C@@]3(C)[C@]1(C)CC2 as the entry. -30.2

Tell me its growth given Cc1ccc2nc(NC(=O)CSc3nc(-c4ccccc4)c(C#N)c4nnnn34)sc2c1 as the entry. 99.5

Tell me its growth given O=C(Nc1nc(-c2ccccc2)cc(-c2ccc(Cl)cc2)n1)c1ccncc1 as the entry. 110

Tell me its growth given Cc1ccc(C)c2c1sc1nc3n[nH]c(N)c3c(=N)n12 as the entry. 112

Tell me its growth given CC1=C(C)C(=O)OC([C@](C)(O)[C@]2(O)CC[C@@]3(O)[C@@H]4C[C@H]5O[C@]56CC=CC(=O)[C@]6(C)[C@H]4CC[C@]23COC(=O)c2ccc(C)o2)C1 (some centres undefined) as the entry. -22.6

---

- System: NCI/ADR-RES ovarian
- experiment: NCI-60 one-dose screen, 48 h
- condition_description: 10 µM unless noted
- Procedure: Growth inhibition of the NCI/ADR-RES human […] tumor cell line is measured as a screen for anti-cancer activity. Cells are grown in 96 well plates and exposed to the test compound for 48 hours. Compounds are tested at a single concentration, which is 10^-5 M for most compounds. The reported endpoint is percent growth (GI% or GIPRCNT), where numbers from 0 - 100% represent growth inhibition, and numbers from -100% - 0 represent cell death. For example, a value of 40 represents 60% growth inhibition. […]
The panel holds about 83,000 compounds, 20% with a hit somewhere; the sample as a whole holds those more often. Active and inactive are the calls of the source. The calls were made as follows: active = growth percent below 10; inactive = the rest.
Result category, one only: active, inactive

Call for entry CC1(CF)NC(=O)NC1=O (stereo not given) : inactive

---

- Tested on: K-562 leukemia
- experiment: NCI-60 one-dose screen, 48 h (100 = growth as untreated, 0 = no growth, -100 = all killed)
- condition_description: 10 µM unless noted
About 83,000 compounds went through this panel and 20% of them were active in at least one assay; those are over-represented in the sample as a whole.
recorded_metric: growth (%)
Answer with a number only, understood to be in %.

Below: 2 compounds and their reported growth.
- Nc1cccc2c1Oc1ccccc1O2: 96.4
- Oc1ccccc1OB(Oc1ccccc1O)N(CCCl)CCCl: 96.2

As a next step, examine the compound that follows.
Tell me its growth given N#Cc1ncc(/N=C/c2ccc(N(CCCl)CCCl)cc2)s1 as the entry. 37.6
